# test-system: human uPAR (uPAR-Fc) (Homo sapiens, UniProt Q03405)
# Construct: comprising amino acids Leu23-Arg303 according to UniProt entry Q03405.1; purchased R&D Systems 10378-UK-100
# Sequence (Q03405 23-303): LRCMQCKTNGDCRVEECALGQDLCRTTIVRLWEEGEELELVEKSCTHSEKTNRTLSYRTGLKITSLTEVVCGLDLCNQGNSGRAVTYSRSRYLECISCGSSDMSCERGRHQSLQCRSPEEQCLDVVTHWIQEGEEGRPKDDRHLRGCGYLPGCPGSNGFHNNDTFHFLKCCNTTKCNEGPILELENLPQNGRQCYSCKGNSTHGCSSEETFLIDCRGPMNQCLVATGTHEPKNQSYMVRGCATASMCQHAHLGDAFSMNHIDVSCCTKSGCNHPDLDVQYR
# assay-text: Surface plasmon resonance (SPR) assay, single cycle kinetics
# Assay type: binding
# test-context: pKD category for uPAR SPR activity assay; uPAR-Fc on Protein A-Chip, single cycle kinetics, 25°C; read-out: pKD CAT (converted)
Where a SMILES comes first, the peptide text is derived from it. Bridges are numbered along the chain shown (N, C = ends). Side-chain parts run from the residue outwards. [ ]: non-standard residue; d: D form. The star is where a group is joined. DOTA = O=C(O)CN1CCN(CC(=O)O)CCN(CC(=O)*)CCN(CC(=O)O)CC1; Phe(4-Cl) = N[C@@H](Cc1ccc(Cl)cc1)C(=O)O; Pro(cis-4-F) = O=C(O)[C@@H]1C[C@H](F)CN1; Hyp = O=C(O)[C@@H]1C[C@@H](O)CN1; hPhe = N[C@@H](CCc1ccccc1)C(=O)O; tBuAla = CC(C)(C)C[C@H](N)C(=O)O; Pentanoyl(4-Me) = CC(C)CCC(=O)*; Cit = NC(=O)NCCC[C@H](N)C(=O)O; αMeL = CC(C)C[C@](C)(N)C(=O)O; Butoxycarbonyl = CCCCOC(=O)*; Chg = N[C@H](C(=O)O)C1CCCCC1; Nva = CCC[C@H](N)C(=O)O; Pentanoyl = CCCCC(=O)*
property: Kd

query: Look up Kd of CCCCOC(=O)N[C@H]1CSSC[C@@H](C(N)=O)NC(=O)[C@H](CCC)NC(=O)[C@H]([C@@H](C)CC)NC(=O)[C@@H]2C[C@@H](O)CN2C(=O)[C@@H]2C[C@H](F)CN2C(=O)[C@H](Cc2ccccc2)NC(=O)[C@H](Cc2ccc(O)cc2)NC(=O)[C@H](CCCCNC(=O)[C@@H](CC(=O)O)NC(=O)CN2CCN(CC(=O)O)CCN(CC(=O)O)CCN(CC(=O)O)CC2)NC(=O)[C@H]([C@@H](C)O)NC1=O [UPAR-424] (Butoxycarbonyl-CTK([dD-DOTA])YF[Pro(cis-4-F)][Hyp]I[Nva]C-NH2; disulfide 1-10) and report it.
result: < 1.58 nM

query: Look up Kd of CC[C@H](C)[C@@H]1NC(=O)[C@@H](C)NC(=O)[C@@H]2CCCN2C(=O)[C@H](Cc2ccccc2)NC(=O)[C@H](Cc2ccc(O)cc2)NC(=O)[C@H](CCC(N)=O)NC(=O)[C@H](CCCNC(N)=O)NC(=O)[C@@H](NC(=O)CCC(C)C)CSSC[C@@H](C(N)=O)NC(=O)[C@H](CC(C)(C)C)NC1=O [UPAR-477] ({Pentanoyl(4-Me)}-C[Cit]QYFP[dA]I[tBuAla]C-NH2; disulfide 1-10) and report it.
result: 10 to 100 nM

query: Look up Kd of CCCCOC(=O)N[C@H]1CSSC[C@@H](C(N)=O)NC(=O)[C@H](CCC)NC(=O)[C@H](C2CCCCC2)NC(=O)[C@@H]2C[C@@H](O)CN2C(=O)[C@@H]2C[C@H](F)CN2C(=O)[C@H](Cc2ccc(Cl)cc2)NC(=O)[C@H](Cc2ccc(O)cc2)NC(=O)[C@H](CCCCNC(=O)CN2CCN(CC(=O)O)CCN(CC(=O)O)CCN(CC(=O)O)CC2)NC(=O)[C@H](CCCNC(N)=O)NC1=O [UPAR-476] (Butoxycarbonyl-C[Cit]K(DOTA)Y[Phe(4-Cl)][Pro(cis-4-F)][Hyp][Chg][Nva]C-NH2; disulfide 1-10) and report it.
result: < 1.58 nM

query: Look up Kd of CCCCC(=O)N[C@H]1CSSC[C@@H](C(N)=O)NC(=O)[C@H](CCC)NC(=O)[C@H](CCc2ccccc2)NC(=O)[C@@H]2C[C@@H](O)CN2C(=O)[C@@H]2CCCN2C(=O)[C@H](Cc2ccccc2)NC(=O)[C@H](Cc2ccc(O)cc2)NC(=O)[C@H](CCC(N)=O)NC(=O)[C@H](CCCNC(=N)N)NC1=O [UPAR-461] (Pentanoyl-CRQYFP[Hyp][hPhe][Nva]C-NH2; disulfide 1-10) and report it.
result: < 1.58 nM

query: Look up Kd of CCCCC(=O)N[C@H]1CSSC[C@@H](C(N)=O)NC(=O)[C@H](CCC)NC(=O)[C@H]([C@@H](C)CC)NC(=O)[C@@H]2C[C@@H](O)CN2C(=O)[C@H](Cc2ccccc2)NC(=O)[C@H](Cc2ccccc2)NC(=O)[C@H](Cc2ccc(O)cc2)NC(=O)[C@H](CCC(N)=O)NC(=O)[C@H](CCCNC(=N)N)NC1=O [UPAR-400] (Pentanoyl-CRQYFF[Hyp]I[Nva]C-NH2; disulfide 1-10) and report it.
result: 1.58 to 10 nM

query: Look up Kd of CC[C@H](C)[C@@H]1NC(=O)[C@@H](C)NC(=O)[C@@H]2CCCN2C(=O)[C@H](Cc2ccccc2)NC(=O)[C@H](Cc2ccc(O)cc2)NC(=O)[C@H](CCC(N)=O)NC(=O)[C@H](CCCNC(N)=O)NC(=O)[C@@H](NC(=O)[C@H](CC(C)C)NC(=O)CN2CCN(CC(=O)O)CCN(CC(=O)O)CCN(CC(=O)O)CC2)CSSC[C@@H](C(N)=O)NC(=O)[C@H](CC(C)C)NC1=O [UPAR-441] ({DOTA}-LC[Cit]QYFP[dA]ILC-NH2; disulfide 2-11) and report it.
result: < 1.58 nM

query: Look up Kd of CCC[C@@H]1NC(=O)[C@H]([C@@H](C)CC)NC(=O)[C@@H]2C[C@@H](O)CN2C(=O)[C@@H]2CCCN2C(=O)[C@H](Cc2ccccc2)NC(=O)[C@H](Cc2ccc(O)cc2)NC(=O)[C@H](CCC(N)=O)NC(=O)[C@H](CCCNC(=N)N)NC(=O)[C@@H](NC(=O)[C@](C)(CC(C)C)NC(C)=O)CSSC[C@@H](C(N)=O)NC1=O [UPAR-485] (Ac-[αMeL]CRQYFP[Hyp]I[Nva]C-NH2; disulfide 2-11) and report it.
result: < 1.58 nM

query: Look up Kd of CCCCC(=O)N[C@H]1CSSC[C@@H](C(N)=O)NC(=O)[C@H](CCC)NC(=O)[C@H](CC(C)(C)C)NC(=O)[C@@H]2C[C@@H](O)CN2C(=O)[C@@H]2CCCN2C(=O)[C@H](Cc2ccccc2)NC(=O)[C@H](Cc2ccc(O)cc2)NC(=O)[C@H](CCC(N)=O)NC(=O)[C@H](CCCNC(=N)N)NC1=O [UPAR-370] (Pentanoyl-CRQYFP[Hyp][tBuAla][Nva]C-NH2; disulfide 1-10) and report it.
result: < 1.58 nM

query: Look up Kd of CC[C@H](C)[C@@H]1NC(=O)[C@H](C)NC(=O)[C@@H]2CCCN2C(=O)[C@H](Cc2ccccc2)NC(=O)[C@H](Cc2ccc(O)cc2)NC(=O)[C@H](CCC(N)=O)NC(=O)[C@H](CCCNC(=N)N)NC(=O)[C@@H](NC(=O)[C@H](CC(C)C)NC(C)=O)CSSC[C@@H](C(N)=O)NC(=O)[C@H](CC(C)C)NC1=O [UPAR-381] (Ac-LCRQYFPAILC-NH2; disulfide 2-11) and report it.
result: < 1.58 nM

query: Look up Kd of CC[C@H](C)[C@@H]1NC(=O)[C@@H](C)NC(=O)[C@@H]2CCCN2C(=O)[C@H](Cc2ccccc2)NC(=O)[C@H](Cc2ccc(O)cc2)NC(=O)[C@H](CCC(N)=O)NC(=O)[C@H](CCCNC(N)=O)NC(=O)[C@@H](NC(=O)[C@H](CC(C)C)NC(C)=O)CSSC[C@@H](C(N)=O)NC(=O)[C@H](CC(C)C)NC1=O [UPAR-418] (Ac-LC[Cit]QYFP[dA]ILC-NH2; disulfide 2-11) and report it.
result: < 1.58 nM
